Reference source for all entries: PubChem BioAssay AID791

# experimental-target: Rho-associated protein kinase 2 (Homo sapiens)
# test-summary: ROCK2 inhibitor IC50 determination, dose response, biochemical, Kinase-Glo luminescence, S6 peptide, 384-well (AID 791)
# test-context: recombinant ROCK2, S6 peptide
Calls of active or inactive are those of the source.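 Rule for the calls: active = IC50 at or below 10 µM; inactive = IC50 above 10 µM.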
Please answer using one outcome listed in active, inactive

compound: C[C@H](O)C(=O)N1CCC(Nc2ccc3[nH]ncc3c2)CC1
category-label: inactive
//
compound: O=C(C(O)c1ccc(Cl)cc1)N1CCN(c2ccc3[nH]ncc3c2)CC1 (stereo not drawn)
category-label: active
//
compound: N[C@@H](C(=O)N1CCN(c2ccc3[nH]ncc3c2)CC1)c1ccccc1
category-label: active
//
compound: C[C@@H](N)C(=O)N1CCN(c2ccc3[nH]ncc3c2)CC1
category-label: inactive
//
compound: N[C@H](C(=O)N1CCC(Nc2ccc3[nH]ncc3c2)CC1)c1ccccc1
category-label: active

Query string: Hi, do you know how N[C@H](Cc1ccccc1)C(=O)N1CCN(c2ccc3[nH]ncc3c2)CC1 came out in this test?
Result string: active

Query string: Hi, do you know how O=C([C@H](O)c1ccccc1)N1CCN(c2ccc3[nH]ncc3c2)CC1 came out in this test?
Result string: active

Query string: Hi, do you know how N[C@@H](Cc1ccccc1)C(=O)N1CCC(Nc2ccc3[nH]ncc3c2)CC1 came out in this test?
Result string: active

Query string: Hi, do you know how O=C([C@H](O)c1cccc(Cl)c1)N1CCC(Nc2ccc3[nH]ncc3c2)CC1 came out in this test?
Result string: active

Query string: Hi, do you know how O=C([C@@H]1Cc2ccccc2CN1)N1CCN(c2ccc3[nH]ncc3c2)CC1 came out in this test?
Result string: active

---

# experimental-target: Rho-associated protein kinase 2 (Homo sapiens) (UniProt O75116)
# Sequence (O75116 whole entry, looked up): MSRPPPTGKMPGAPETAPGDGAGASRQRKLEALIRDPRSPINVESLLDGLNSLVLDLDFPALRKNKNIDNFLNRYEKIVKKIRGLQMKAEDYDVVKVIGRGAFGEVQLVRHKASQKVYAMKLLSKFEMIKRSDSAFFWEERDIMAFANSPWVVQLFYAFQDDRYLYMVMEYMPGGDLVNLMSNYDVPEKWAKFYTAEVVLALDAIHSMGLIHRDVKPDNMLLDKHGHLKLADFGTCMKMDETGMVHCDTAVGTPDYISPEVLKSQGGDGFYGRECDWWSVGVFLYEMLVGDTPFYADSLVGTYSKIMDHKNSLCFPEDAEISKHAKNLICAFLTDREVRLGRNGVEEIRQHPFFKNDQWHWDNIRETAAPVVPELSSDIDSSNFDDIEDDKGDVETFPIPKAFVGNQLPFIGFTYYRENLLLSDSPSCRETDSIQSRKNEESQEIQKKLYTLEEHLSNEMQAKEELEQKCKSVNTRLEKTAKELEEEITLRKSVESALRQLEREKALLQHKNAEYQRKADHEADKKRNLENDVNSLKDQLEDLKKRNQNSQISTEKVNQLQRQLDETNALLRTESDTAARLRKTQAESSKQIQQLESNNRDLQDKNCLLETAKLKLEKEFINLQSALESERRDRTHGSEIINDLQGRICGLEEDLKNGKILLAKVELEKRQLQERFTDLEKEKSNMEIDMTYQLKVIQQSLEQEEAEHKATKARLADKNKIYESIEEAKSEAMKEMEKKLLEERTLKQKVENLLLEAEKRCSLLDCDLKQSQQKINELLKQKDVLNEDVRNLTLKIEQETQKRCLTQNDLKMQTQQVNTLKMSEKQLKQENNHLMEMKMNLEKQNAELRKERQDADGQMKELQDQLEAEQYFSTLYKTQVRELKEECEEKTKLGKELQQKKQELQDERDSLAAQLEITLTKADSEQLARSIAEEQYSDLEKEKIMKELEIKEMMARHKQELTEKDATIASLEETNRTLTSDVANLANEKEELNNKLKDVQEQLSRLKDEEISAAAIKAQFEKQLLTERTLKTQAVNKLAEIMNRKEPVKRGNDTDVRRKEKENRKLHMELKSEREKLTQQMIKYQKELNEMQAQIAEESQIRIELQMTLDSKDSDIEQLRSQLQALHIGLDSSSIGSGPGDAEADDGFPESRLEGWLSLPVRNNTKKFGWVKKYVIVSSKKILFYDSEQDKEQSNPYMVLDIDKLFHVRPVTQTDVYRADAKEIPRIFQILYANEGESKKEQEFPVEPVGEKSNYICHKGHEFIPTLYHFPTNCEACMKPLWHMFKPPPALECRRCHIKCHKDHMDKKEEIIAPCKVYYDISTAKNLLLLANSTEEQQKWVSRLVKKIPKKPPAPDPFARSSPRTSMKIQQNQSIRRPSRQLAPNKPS
# test-summary: ROCK2 inhibitor IC50 determination, dose response, biochemical, Kinase-Glo luminescence, S6 peptide, 384-well (AID 791)
# test-context: recombinant ROCK2, S6 peptide
endpoint: pIC50
Quick note: pIC50 means taking -log10 of the concentration in moles per liter.

Value of measured pIC50 for the entry C[C@H](N)C(=O)N1CCC(Nc2ccc3[nH]ncc3c2)CC1 : 5.24

Value of measured pIC50 for the entry O=C([C@H](O)c1ccccc1Cl)N1CCN(c2ccc3[nH]ncc3c2)CC1 : 5.92

Value of measured pIC50 for the entry O=C(C(O)c1ccc(Br)cc1)N1CCN(c2ccc3[nH]ncc3c2)CC1 (stereo not drawn) : 8.10

Value of measured pIC50 for the entry NC(C(=O)N1CCC(Nc2ccc3[nH]ncc3c2)CC1)c1cccc(Cl)c1 (stereo not drawn) : 6.83

Value of measured pIC50 for the entry NC(C(=O)N1CCN(c2ccc3[nH]ncc3c2)CC1)c1ccc(Br)cc1 (stereo not drawn) : 8.05

Value of measured pIC50 for the entry O=C([C@@H](O)c1ccccc1Cl)N1CCC(Nc2ccc3[nH]ncc3c2)CC1 : 5.77

Value of measured pIC50 for the entry O=C([C@H](O)c1cccc(Cl)c1)N1CCN(c2ccc3[nH]ncc3c2)CC1 : 5.98

Value of measured pIC50 for the entry NC(C(=O)N1CCN(c2ccc3[nH]ncc3c2)CC1)c1cccc(Cl)c1 (stereo not drawn) : 6.12

Value of measured pIC50 for the entry CC(C)[C@@H](O)C(=O)N1CCN(c2ccc3[nH]ncc3c2)CC1 : 5.41

Value of measured pIC50 for the entry NC(C(=O)N1CCN(c2ccc3[nH]ncc3c2)CC1)c1ccc(Cl)cc1 (stereo not drawn) : 6.73

Value of measured pIC50 for the entry O=C([C@H](O)c1ccccc1)N1CCC(Nc2ccc3[nH]ncc3c2)CC1 : 6.11

Value of measured pIC50 for the entry NC(C(=O)N1CCC(Nc2ccc3[nH]ncc3c2)CC1)c1ccc(Br)cc1 (stereo not drawn) : 8.90

Value of measured pIC50 for the entry O=C(C(O)c1ccc(Br)cc1)N1CCC(Nc2ccc3[nH]ncc3c2)CC1 (stereo not drawn) : 8.05
